- Test system: NF-κB
- Experiment: Measurement of NF-κB activation using THP1-Blue NF-κB cells (SEAP)
- Format: cell-based
- Experimental parameters: compound 5 μM + LPS, 20 h; two point normalized, compound 1 as 200%, LPS (10 ng/mL) as 100%; read-out: NF-κB SEAP Compound + LPS % Activation
Value type: activity at 5 µM (%)
Note: unit % is implicit; provide only the numeric part.

The examples below pair each entry with its known result.
Cc1ccc(C)c(-c2nc(NC(=O)c3ccc(S(=O)(=O)N4CCCCC4)cc3)sc2-c2ccccc2)c1 [Compound 18i]
98.4
Cc1ccc(C)c(-c2csc(NS(=O)(=O)c3ccc(C(=O)N4CCCCC4)cc3)n2)c1 [Compound 55]
91.7
Cc1ccc(C)c(-c2csc(NC(=O)c3ccc(S(=O)(=O)N4CCCCC4)s3)n2)c1 [Compound 46c]
97.2
Cc1ccc(-c2csc(NC(=O)c3ccc(S(=O)(=O)N4CCCCC4)cc3)n2)c(C)c1 [Compound 12m]
86.7
C#CC1CCN(S(=O)(=O)c2ccc(C(=O)Nc3nc(-c4cc(C)ccc4C)cs3)cc2)CC1 [Compound 72d]
152
Cc1ccc(C)c(-c2csc(C(=O)Nc3ccc(S(=O)(=O)N4CCCCC4)cc3)n2)c1 [Compound 34b]
104

-- ask Which value of activity at 5 µM has been reported for CCCCN(CCCC)S(=O)(=O)c1ccc(C(=O)Nc2nc(-c3cc(C)ccc3C)cs2)cc1 [Compound 58c] in the records?
-- reply 105

-- ask Which value of activity at 5 µM has been reported for CCCC1CCN(S(=O)(=O)c2ccc(C(=O)Nc3nc(-c4cc(C)ccc4Br)cs3)cc2)CC1 [Compound 59] in the records?
-- reply 298

-- ask Which value of activity at 5 µM has been reported for Cc1ccc(C)c(-c2csc(NC(=O)c3ccc(S(=O)(=O)N4CCCCC4)cn3)n2)c1 [Compound 46a] in the records?
-- reply 111

-- ask Which value of activity at 5 µM has been reported for Cc1cccc(-c2csc(NC(=O)c3ccc(S(=O)(=O)N4CCCCC4)cc3)n2)c1C [Compound 12l] in the records?
-- reply 157

-- ask Which value of activity at 5 µM has been reported for Cc1ccc(C)c(-c2nc(NC(=O)c3ccc(S(=O)(=O)N4CCCCC4)cc3)sc2-c2ccco2)c1 [Compound 18j] in the records?
-- reply 102

-- ask Which value of activity at 5 µM has been reported for Cc1ccc(C)c(-c2csc(NC(=O)c3ccc(C(=O)N4CCCCC4)cc3)n2)c1 [Compound 49c] in the records?
-- reply 109

---

Examples of compounds with documented activity at 5 µM follow.
- Tested on: NF-κB
- Experiment: Measurement of NF-κB activation using THP1-Blue NF-κB cells (SEAP)
- Assay type: cell-based
- Experimental parameters: compound 5 μM + LPS, 20 h; two point normalized, compound 1 as 200%, LPS (10 ng/mL) as 100%; read-out: NF-κB SEAP Compound + LPS % Activation
Note: unit % is implicit; provide only the numeric part.

The examples below pair each entry with its known result.
Cc1ccc(C)c(-c2cnc(NC(=O)c3ccc(S(=O)(=O)N4CCCCC4)cc3)s2)c1 [Compound 18e]
95.1
Cc1ccc(-c2csc(NC(=O)c3ccc(S(=O)(=O)N4CCCCC4)cc3)n2)cc1C [Compound 12n]
98
CCCC#Cc1sc(NC(=O)c2ccc(S(=O)(=O)N3CCCCC3)cc2)nc1-c1cc(C)ccc1Br
287
Cc1ccc2c(c1)-c1nc(NC(=O)c3ccc(S(=O)(=O)N4CCCCC4)cc3)sc1CC2 [Compound 12s]
141
CCCCc1sc(NC(=O)c2ccc(S(=O)(=O)N3CCCCC3)cc2)nc1-c1cc(C)ccc1C [Compound 18s]
124

-- ask Which value of activity at 5 µM has been reported for Cc1ccc(C)c(-c2csc(NC(=O)c3cccc(C(=O)N4CCCCC4)c3)n2)c1 [Compound 49d] in the records?
-- reply 112

-- ask Which value of activity at 5 µM has been reported for CCc1csc(NC(=O)c2ccc(S(=O)(=O)N3CCCCC3)cc2)n1 [Compound 12h] in the records?
-- reply 94

-- ask Which value of activity at 5 µM has been reported for Cc1cc(C)cc(-c2csc(NC(=O)c3ccc(S(=O)(=O)N4CCCCC4)cc3)n2)c1 [Compound 12o] in the records?
-- reply 93.2

-- ask Which value of activity at 5 µM has been reported for CCc1ccc(C)c(-c2csc(NC(=O)c3ccc(S(=O)(=O)N4CCCCC4)cc3)n2)c1 [Compound 12u] in the records?
-- reply 200

-- ask Which value of activity at 5 µM has been reported for C#Cc1ccc(C)c(-c2csc(NC(=O)c3ccc(S(=O)(=O)N4CCCCC4)cc3)n2)c1 [Compound 12t] in the records?
-- reply 90

-- ask Which value of activity at 5 µM has been reported for Cc1ccc(C)c(-c2csc(NC(=O)c3ccc(S(=O)(=O)N4CCNCC4)cc3)n2)c1 [Compound 58i] in the records?
-- reply 104

-- ask Which value of activity at 5 µM has been reported for `Cc1ccc(C)c(-c2csc(NC(=O)c3ccc(S(=O)(=O)N4CCCCC4)cc3)n2)c1` in the records?
-- reply 200

---

- Tested on: NF-κB
- Experiment: Measurement of NF-κB activation using THP1-Blue NF-κB cells (SEAP)
- Assay type: cell-based
- Experimental parameters: compound 5 μM + LPS, 20 h; two point normalized, compound 1 as 200%, LPS (10 ng/mL) as 100%; read-out: NF-κB SEAP Compound + LPS % Activation
Examples of compounds with documented activity at 5 µM follow.
Note: unit % is implicit; provide only the numeric part.

Cc1ccc(C)c(-c2nc(NC(=O)c3ccc(S(=O)(=O)N4CCCCC4)cc3)sc2Br)c1 [Compound 18n]
198
C#CCN(CCC)S(=O)(=O)c1ccc(C(=O)Nc2nc(-c3cc(C)ccc3C)cs2)cc1 [Compound 72c]
122
Cc1ccc(C)c(-c2nc(NC(=O)c3ccc(S(=O)(=O)N4CCCCC4)cc3)sc2N2CCCCC2)c1 [Compound 18h]
99.9
C#Cc1sc(NC(=O)c2ccc(S(=O)(=O)N3CCCCC3)cc2)nc1-c1cc(C)ccc1C [Compound 18o]
153
CCCCCc1sc(NC(=O)c2ccc(S(=O)(=O)N3CCCCC3)cc2)nc1-c1cc(C)ccc1C [Compound 18t]
132

-- ask Which value of activity at 5 µM has been reported for CC(C)(C)Cc1csc(NC(=O)c2ccc(S(=O)(=O)N3CCCCC3)cc2)n1 [Compound 12j] in the records?
-- reply 93.9

-- ask Which value of activity at 5 µM has been reported for CCC#Cc1sc(NC(=O)c2ccc(S(=O)(=O)N3CCCCC3)cc2)nc1-c1cc(C)ccc1C [Compound 18p] in the records?
-- reply 192

-- ask Which value of activity at 5 µM has been reported for Cc1ccc(C)c(-c2csc(NC(=O)c3ccc(S(=O)(=O)C4CCCCC4)cc3)n2)c1 [Compound 49b] in the records?
-- reply 114

-- ask Which value of activity at 5 µM has been reported for Cc1ccc(C)c(-c2c[nH]c(NC(=O)c3ccc(S(=O)(=O)N4CCCCC4)cc3)n2)c1 [Compound 18a] in the records?
-- reply 97.3

---

Examples of molecules with documented NF-κB FRET Compound + LPS % Activation follow.
- Tested on: NF-κB
- Experiment: cell-based NF-κB FRET assay
- Experimental parameters: compound + LPS; two point normalized, compound 1 as 200%, LPS (10 ng/mL) as 100%
- Text: Site A was assigned the 4-substituent of thiazole ring, site B was the thiazole ring itself, site C was the central amide bond in the structure, site D was the benzene ring bearing 1,4-carboxyl and sulfamoyl group, site E was the sulfonamide functional group and site F was the amide substituent on the sulfamoyl group.
Note: unit % is implicit; provide only the numeric part.

-- ask Checklist item: NF-κB FRET Compound + LPS % Activation tested on NF-κB, entry CC(C)(C)Cc1csc(NC(=O)c2ccc(S(=O)(=O)N3CCCCC3)cc2)n1 [Compound 12j] , value?
-- reply 110.62

-- ask Checklist item: NF-κB FRET Compound + LPS % Activation tested on NF-κB, entry `Cc1ccc(N=[N+]=[N-])cc1-c1csc(NC(=O)c2ccc(S(=O)(=O)N3CCCCC3)cc2)n1` , value?
-- reply 168.96

-- ask Checklist item: NF-κB FRET Compound + LPS % Activation tested on NF-κB, entry CC(=O)N1CCN(S(=O)(=O)c2ccc(C(=O)Nc3nc(-c4cc(C)ccc4C)cs3)cc2)CC1 [Compound 58j] , value?
-- reply 90.73

---

Examples of molecules with documented MTT Compound alone % Viability follow.
- System: THP-1 cells
- Experiment: Cell viability assay (MTT)
- Type: cell-based
- Experimental parameters: compound 5 μM alone, 18 h, normalized to DMSO as 100%
Note: unit % is implicit; provide only the numeric part.

The examples below pair each entry with its known result.
Cc1ccc(C)c(-c2csc(NC(=O)c3ccc(S(=O)(=O)N4CCCCC4)nc3)n2)c1 [Compound 46b]
88.57
Cc1csc(NC(=O)c2ccc(S(=O)(=O)N3CCCCC3)cc2)n1 [Compound 12g]
114.29
Cc1cccc(-c2csc(NC(=O)c3ccc(S(=O)(=O)N4CCCCC4)cc3)n2)c1C [Compound 12l]
98.37
C#CC1CCN(S(=O)(=O)c2ccc(C(=O)Nc3nc(-c4cc(C)ccc4C)cs3)cc2)CC1 [Compound 72d]
83.27
Cc1cccc(C)c1-c1csc(NC(=O)c2ccc(S(=O)(=O)N3CCCCC3)cc2)n1 [Compound 12p]
99.64

-- ask Which value of MTT Compound alone % Viability has been reported for Cc1ccc(C)c(-c2nc(NC(=O)c3ccc(S(=O)(=O)N4CCCCC4)cc3)sc2C#CCCCO)c1 [Compound 18u] in the records?
-- reply 104.08

-- ask Which value of MTT Compound alone % Viability has been reported for Cc1ccc(C)c(-c2nc(NC(=O)c3ccc(S(=O)(=O)N4CCCCC4)cc3)sc2C)c1 [Compound 18m] in the records?
-- reply 96.90

-- ask Which value of MTT Compound alone % Viability has been reported for CCOC1CCN(S(=O)(=O)c2ccc(C(=O)Nc3nc(-c4cc(C)ccc4C)cs3)cc2)CC1 [Compound 58g] in the records?
-- reply 112.63

-- ask Which value of MTT Compound alone % Viability has been reported for Cc1ccc(C)c(-c2csc(NC(=O)c3ccc(S(=O)(=O)N4CCC5(CC4)N=N5)cc3)n2)c1 [Compound 72e] in the records?
-- reply 84.40

-- ask Which value of MTT Compound alone % Viability has been reported for CCCCc1sc(NC(=O)c2ccc(S(=O)(=O)N3CCCCC3)cc2)nc1-c1cc(C)ccc1C [Compound 18s] in the records?
-- reply 141.98

-- ask Which value of MTT Compound alone % Viability has been reported for Cc1ccc(C)c(Cc2csc(NC(=O)c3ccc(S(=O)(=O)N4CCCCC4)cc3)n2)c1 [Compound 12f] in the records?
-- reply 97.02

-- ask Which value of MTT Compound alone % Viability has been reported for Cc1ccc(-c2csc(NC(=O)c3ccc(S(=O)(=O)N4CCCCC4)cc3)n2)c(C)c1 [Compound 12m] in the records?
-- reply 101.40
